run_description: Cmax in primate
Assay type: ADME
experimental_parameters: primates
measure: Cmax (ng/mL)
The reply should be a number in ng/mL, with the unit left off.

Item: "O=C(c1cccc(F)c1-c1ncccn1)N1[C@@H]2CC[C@H]1[C@H](Nc1cnc(C(F)(F)F)cn1)C2" | Cmax: 349

* * *

run_description: Lipophilicity, logD of the compound at pH 7.4
Type: physicochemical
experimental_parameters: buffer
measure: logD
// no unit string in output, number only

Item: "O=C(c1cccc(F)c1-c1ncccn1)N1[C@@H]2CC[C@H]1[C@H](Nc1cnc(C(F)(F)F)cn1)C2" | logD: 2.18

* * *

assayed_system: Orexin receptor type 2 (Homo sapiens, UniProt O43614)
Sequence (O43614 whole entry): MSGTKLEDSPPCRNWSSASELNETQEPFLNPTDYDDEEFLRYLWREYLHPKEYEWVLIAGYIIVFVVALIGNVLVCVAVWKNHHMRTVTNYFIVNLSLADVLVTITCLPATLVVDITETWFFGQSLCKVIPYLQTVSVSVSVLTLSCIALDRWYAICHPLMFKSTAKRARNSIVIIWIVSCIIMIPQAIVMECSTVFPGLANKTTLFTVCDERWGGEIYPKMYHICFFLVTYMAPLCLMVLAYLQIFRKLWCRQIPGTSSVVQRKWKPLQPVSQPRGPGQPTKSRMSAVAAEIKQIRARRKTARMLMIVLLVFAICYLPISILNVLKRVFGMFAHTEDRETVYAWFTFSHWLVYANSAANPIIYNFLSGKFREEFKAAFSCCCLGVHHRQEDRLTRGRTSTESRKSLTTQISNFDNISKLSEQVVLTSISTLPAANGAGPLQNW
measure: pKi
pKi is a log-scale quantity: -log10 of the concentration expressed in molar.

compound="O=C(c1cc(F)ccc1-c1ncccn1)N1C2CCC1C(COc1ccc(F)cn1)C2 (racemic)" measure=pKi observed_measurement=6.80

Item: "O=C(c1cccc(F)c1-c1ncccn1)N1[C@@H]2CC[C@H]1[C@H](Nc1cnc(C(F)(F)F)cn1)C2" | pKi: 6.15

Item: O=C(c1cc(F)ccc1-n1nccn1)N1C2CCC1C(COc1ccc(F)cn1)C2 (racemic) | pKi: 6.70

Item: "O=C(c1cccn2ccnc12)N1CCC(F)(F)[C@@H](Oc2ccc3ccccc3n2)C1" | pKi: 6.00

Item: "O=C(c1ccc(F)cc1-c1ncccn1)N1[C@@H]2CC[C@H]1[C@H](Nc1cnc(C(F)(F)F)cn1)C2" | pKi: 5.77

Item: O=C(c1cccc(F)c1-c1ncccn1)N1C2CCC1C(Oc1cnc(C(F)(F)F)cn1)C2 (racemic) | pKi: 5.26

Item: "O=C(c1ccccc1-n1nccn1)N1[C@@H]2CC[C@H]1[C@H](Nc1cnc(C(F)(F)F)cn1)C2" | pKi: 6.11

Item: O=C(c1ccccc1-n1nccn1)N1C2CCC1C(Nc1ccc(Cl)cn1)C2 (racemic) | pKi: 5.67

* * *

run_description: Volume of distribution at steady state in primate
Assay type: ADME
experimental_parameters: primates; read-out: Vdss
measure: Vd (L/kg)
The reply should be a number in L/kg, with the unit left off.

Item: "O=C(c1cccc(F)c1-c1ncccn1)N1[C@@H]2CC[C@H]1[C@H](Nc1cnc(C(F)(F)F)cn1)C2" | Vd: 0.8

* * *

run_description: AUC (0 to 24 hrs) in rat assessed as NOAEL at 200 mg/kg/day, po administered as repeated dose for 6 days
Type: ADME, organism-based
Design: route oral, time 6 day, dose 200 mg/kg/day
experimental_parameters: in vivo
measure: AUC at 144 h (ng·h/mL)
The reply should be a number in ng·h/mL, with the unit left off.

Item: "O=C(c1cccc(F)c1-c1ncccn1)N1[C@@H]2CC[C@H]1[C@H](Nc1cnc(C(F)(F)F)cn1)C2" | AUC at 144 h: 62000

All values here come from ChEMBL document CHEMBL4725448.
